The reported measurements were obtained from patent US12588678B2.

Tested on: Tetranychus cinnabarinus mite eggs
experiment: Activity against mite eggs, dipping method on bean seedling leaves
Type: in vivo
reportedConditions: Tetranychus cinnabarinus, 96 h, read-out: mortality of mite eggs (%), 10 mg/L; checked after 4 days
measuredParameter: mortality at 10 µg/mL
Please make sure the unit comes right after the number.

>  <compound>
O=S(=O)(Oc1ccc(C2COC(c3c(F)cccc3F)=N2)cc1)c1ccc(C(F)(F)F)cc1 (stereo not shown) [Compound R3-13]

>  <measuredTarget>
Tetranychus cinnabarinus mite eggs

>  <mortality at 10 µg/mL>
90%

$$$$

Query block: Given the compound O=S(=O)(Oc1ccc(C2COC(c3c(F)cccc3F)=N2)cc1)c1ccc(Cl)cc1 (stereo not shown) [Compound R3-8] , what is its reported mortality at 10 µg/mL?
Result block: 90%

Query block: Given the compound Fc1cccc(F)c1C1=NC(c2ccc(CN3CCCC3)cc2)CO1 (stereo not shown) [Compound R1-1] , what is its reported mortality at 10 µg/mL?
Result block: 60%

Query block: Given the compound O=S(=O)(Oc1ccc(C2COC(c3c(F)cccc3F)=N2)cc1)c1cccc(F)c1 (stereo not shown) [Compound R3-12] , what is its reported mortality at 10 µg/mL?
Result block: 90%

----------
System: Tetranychus cinnabarinus mite larvae
experiment: Larvicidal activity test, dipping method on bean seedling leaves
Format: in vivo
reportedConditions: Tetranychus cinnabarinus, 96 h, read-out: mortality of mite larvae (%), 10 mg/L; checked after 4 days
Mark true (1) for mortality at 10 µg/mL under 90%, false (0) if at or over.

>  <molecule>
O=S(=O)(Oc1ccc(C2COC(c3c(F)cccc3F)=N2)cc1)c1ccc2c(c1)OCCO2 (stereo not shown)

>  <label>
true (1)

$$$$
>  <molecule>
O=S(=O)(Oc1ccc(C2COC(c3c(F)cccc3F)=N2)cc1)c1ccc(C(F)(F)F)cc1 (stereo not shown)

>  <label>
false (0)

$$$$
>  <molecule>
O=C1CCC(=O)N1Cc1ccc(C2COC(c3c(F)cccc3F)=N2)cc1 (stereo not shown)

>  <label>
true (1)

$$$$

Query block: Input Cc1cccc2ccn(Cc3ccc(C4COC(c5c(F)cccc5F)=N4)cc3)c12 (stereo not shown) ; condition: mortality at 10 µg/mL strictly below 90%. Does it hold?
Result block: false (0)

Query block: Input Fc1cccc(F)c1C1=NC(c2ccc(Cn3ccc4cc(Br)ccc43)cc2)CO1 (stereo not shown) ; condition: mortality at 10 µg/mL strictly below 90%. Does it hold?
Result block: true (1)

Query block: Input Fc1ccc2c(ccn2Cc2ccc(C3COC(c4c(F)cccc4F)=N3)cc2)c1 (stereo not shown) ; condition: mortality at 10 µg/mL strictly below 90%. Does it hold?
Result block: true (1)

Query block: Input Fc1cccc(F)c1C1=NC(c2ccc(COCc3cccs3)cc2)CO1 (stereo not shown) ; condition: mortality at 10 µg/mL strictly below 90%. Does it hold?
Result block: true (1)

Query block: Input CC(=O)N1CCN(Cc2ccc(C3COC(c4c(F)cccc4F)=N3)cc2)C1=O (stereo not shown) ; condition: mortality at 10 µg/mL strictly below 90%. Does it hold?
Result block: true (1)

Query block: Input Fc1cccc(F)c1C1=NC(c2ccc(CN3CCOCC3)cc2)CO1 (stereo not shown) ; condition: mortality at 10 µg/mL strictly below 90%. Does it hold?
Result block: true (1)

Query block: Input Fc1cccc(F)c1C1=NC(c2ccc(COc3ccc(C(F)(F)F)cc3)cc2)CO1 (stereo not shown) ; condition: mortality at 10 µg/mL strictly below 90%. Does it hold?
Result block: false (0)
